// data source = patent US20240026024A1

SYSTEM_TESTED: T1, monkey CD73 (Novoprotein, Cat No. C121) (monkey, UniProt A0A2K5V5U7 27-549)
T1 construct: Bought protein; also called monkey CD73 protein
T1 sequence: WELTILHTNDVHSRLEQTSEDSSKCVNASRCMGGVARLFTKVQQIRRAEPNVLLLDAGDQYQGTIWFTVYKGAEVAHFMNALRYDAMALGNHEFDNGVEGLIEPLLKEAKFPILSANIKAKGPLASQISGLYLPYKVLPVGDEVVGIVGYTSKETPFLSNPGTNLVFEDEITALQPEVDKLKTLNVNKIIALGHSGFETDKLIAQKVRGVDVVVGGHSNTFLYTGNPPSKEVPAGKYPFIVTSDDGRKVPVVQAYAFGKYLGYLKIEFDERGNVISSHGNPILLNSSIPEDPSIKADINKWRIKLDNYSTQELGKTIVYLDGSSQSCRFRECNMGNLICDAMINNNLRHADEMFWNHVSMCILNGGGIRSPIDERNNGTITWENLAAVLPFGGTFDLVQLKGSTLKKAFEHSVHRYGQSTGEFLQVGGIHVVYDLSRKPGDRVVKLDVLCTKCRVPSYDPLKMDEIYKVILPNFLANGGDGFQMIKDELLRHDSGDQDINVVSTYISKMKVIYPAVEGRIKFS
PROTOCOL_NOTES: SPR (Biacore T200), antibody captured on protein A chip, CD73 as analyte, 1:1 model
MEASURED_PROPERTY: kon (M⁻¹ s⁻¹)
A number alone suffices; assume M⁻¹ s⁻¹.

Record excerpt, results attached:
# kon (binder: 900698 (antibody, V domains shown, Constant regions are not restated) VH: QVQLVESGGGLVKPGGSLRLSCAASGFTFSKYAMSWIRQAPGKGLEWVAEISSGGGYINYADSVKGRFTISRDNAKNSLYLQMNSLRAEDTAVYYCARAIYYYGSSYNYYAMDYWGQGTTVTVSS VL: DIQMTQSPSSLSASVGDRVTITCRASQDVGTAEAWYQQKPGKAPKLLIYWASTRHTGVPSRFSGSGSGTDFTLTISSLQPEDFATYYCQQYSSYPLTFGQGTKLEIK ) is 108000

For this binder ( 900696 (antibody, V domains shown, Constant regions are not restated) VH: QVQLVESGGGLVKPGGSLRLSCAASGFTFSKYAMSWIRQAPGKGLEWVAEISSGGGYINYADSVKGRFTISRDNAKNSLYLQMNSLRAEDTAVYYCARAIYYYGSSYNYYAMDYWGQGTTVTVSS VL: DIQMTQSPSSLSASVGDRVTITCRASQDVGTAEAWYQQKPGKAPKLLIYWASTLQSGVPSRFSGSGSGTDFTLTISSLQPEDFATYYCQQYSSYPLTFGQGTKLEIK ), measured kon is 354000

Here is another binder to look at.
In plain terms, 900581 (antibody, human IgG1, V domains shown) VH: EVQLVESGGGLVKPGGSLKLSCAASGFTFSKYAMSWVRQSPEKRLEWVAEISSGGGYINYPDTVTGRFTISRDNAKNTLYLEMSSLRSGDTAMYYCARAIYYYGSSYNYYAMDYWGQGTSVTVSS VL: DIVMTQSHKFMSTSVGDRVSITCKASQDVGTAEAWYQQKPGQSPKLLIYWASTRHTGVPDRFTGSGSGTDFTLTIGNVQSEDLADYFCQQYSSYPLTFGGGTKLEIK has a documented kon of 349000
